target: CYP2C19 (Homo sapiens, UniProt P33261); construct: purchased Thermo Fisher Scientific; assay: CYP inhibition, Vivid CYP450 screening kit; format: in vitro ADME; settings: recombinant human CYP2C19 (P450 Baculosomes), probe Vivid substrate; human recombinant CYP2C19, 10 µM; read-out: inhibition compared to the vehicle control
Sequence (P33261 whole entry): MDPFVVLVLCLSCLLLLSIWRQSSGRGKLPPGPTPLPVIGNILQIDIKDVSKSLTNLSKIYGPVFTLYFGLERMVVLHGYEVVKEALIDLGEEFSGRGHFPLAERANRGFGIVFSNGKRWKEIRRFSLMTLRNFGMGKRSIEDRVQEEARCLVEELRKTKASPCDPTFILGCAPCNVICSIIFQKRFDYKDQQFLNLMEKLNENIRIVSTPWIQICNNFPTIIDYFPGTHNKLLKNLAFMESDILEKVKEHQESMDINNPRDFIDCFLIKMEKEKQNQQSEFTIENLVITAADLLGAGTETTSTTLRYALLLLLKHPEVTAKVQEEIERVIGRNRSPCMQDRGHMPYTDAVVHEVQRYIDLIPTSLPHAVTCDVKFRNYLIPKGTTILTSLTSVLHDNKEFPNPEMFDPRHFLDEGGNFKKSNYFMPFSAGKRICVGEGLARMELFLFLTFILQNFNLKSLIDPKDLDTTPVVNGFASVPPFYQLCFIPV
MEASURED METRIC: inhibition at 30 min, 10 µM (%)
Expressed in %, but write only the number.

IN: What inhibition at 30 min, 10 µM value was documented for this molecule, COc1cc(OC)cc(N2CCN(C(=O)Nc3nc4cc(F)ccc4nc3OC)CC2)c1 [supinoxin] ?
OUT: 35.7

---

experiment: In vivo pharmacokinetic study, oral administration to rats; settings: Sprague-Dawley, rat, plasma; fasted male SD rats, oral 0.5 mg/kg, 24 h; BQL treated as 0
MEASURED METRIC: concentration at 24 h (ng/mL)
Expressed in ng/mL, but write only the number.

IN: What concentration at 24 h value was documented for this molecule, `COc1cc(OC)cc(N2CCN(C(=O)Nc3nc4cc(F)ccc4nc3OC)CC2)c1` ?
OUT: 0

---

assay: Plasma protein binding by Rapid Equilibrium Dialysis; assay type: in vitro ADME; conditions: rat plasma, as fraction, Determined; read-out: Fraction unbound in plasma (fu)
MEASURED METRIC: fraction unbound at 1 µg/mL
Answer using only a numeral; do not append any unit.

IN: What fraction unbound at 1 µg/mL value was documented for this compound, COc1cc(OC)cc(N2CCN(C(=O)Nc3nc4cc(F)ccc4nc3OC)CC2)c1 [supinoxin] ?
OUT: 0.0363

---

assay: In vivo pharmacokinetic study, intravenous administration to rats; conditions: male, Sprague Dawley, rat, plasma; rats, intravenous, 5 mg/kg
MEASURED METRIC: AUC(0-t) (ng·h/mL)
Expressed in ng·h/mL, but write only the number.

IN: What AUC(0-t) value was documented for this compound, COc1cc(OC)cc(N2CCN(C(=O)Nc3nc4cc(F)ccc4nc3OC)CC2)c1 [supinoxin] ?
OUT: 6090

---

target: UniProtKB P05177; experiment: CYP inhibition, Vivid CYP450 screening kit; conditions: human recombinant CYP1A2
Sequence (P05177 whole entry): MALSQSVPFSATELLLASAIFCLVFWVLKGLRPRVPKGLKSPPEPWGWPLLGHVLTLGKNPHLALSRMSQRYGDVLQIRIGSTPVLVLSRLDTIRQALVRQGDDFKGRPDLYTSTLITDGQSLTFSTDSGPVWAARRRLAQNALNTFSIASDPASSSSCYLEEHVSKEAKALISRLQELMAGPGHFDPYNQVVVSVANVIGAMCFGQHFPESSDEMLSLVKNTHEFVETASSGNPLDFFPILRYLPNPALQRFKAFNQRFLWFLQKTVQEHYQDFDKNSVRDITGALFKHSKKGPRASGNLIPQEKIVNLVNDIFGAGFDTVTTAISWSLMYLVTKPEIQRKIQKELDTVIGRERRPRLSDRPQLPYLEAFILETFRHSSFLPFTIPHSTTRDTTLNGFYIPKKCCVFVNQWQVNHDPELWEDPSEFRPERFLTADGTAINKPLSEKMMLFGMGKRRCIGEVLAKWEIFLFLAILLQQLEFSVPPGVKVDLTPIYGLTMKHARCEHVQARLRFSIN
pIC50: −log10 of the molar value.
MEASURED METRIC: pIC50

IN: What pIC50 value was documented for this molecule, `COc1cc(OC)cc(N2CCN(C(=O)Nc3nc4cc(F)ccc4nc3OC)CC2)c1` ?
OUT: < 5.00

---

experiment: Plasma protein binding by Rapid Equilibrium Dialysis; assay type: in vitro ADME; details: rat plasma, 1 µg/mL, 4 h incubation
MEASURED METRIC: fraction unbound at 4 h, 1 µg/mL
Answer using only a numeral; do not append any unit.

IN: What fraction unbound at 4 h, 1 µg/mL value was documented for this molecule, `COc1cc(OC)cc(N2CCN(C(=O)Nc3nc4cc(F)ccc4nc3OC)CC2)c1` ?
OUT: 0.023

---

experiment: Tissue distribution (tissue-to-plasma partition) in rats; format: in vivo; conditions: male, Sprague-Dawley, rat, muscle; Muscles; rats, oral administration (5 mg/kg); read-out: Kp (tissue to plasma AUC ratio)
MEASURED METRIC: Kp
Answer using only a numeral; do not append any unit.

IN: What Kp value was documented for this compound, `COc1cc(OC)cc(N2CCN(C(=O)Nc3nc4cc(F)ccc4nc3OC)CC2)c1` ?
OUT: 1.2
